System: HEK-293T
Test: Incucyte cell viability with HEK293T; also: filed as whole numbers so only -1 and 0 and 1 occur
Assay type: toxicity, cell-based
Conditions: human, 0 h, 10 µM, compound concentration 10 uM, replicate number 2, timepoint 0 hours
Assign Growth Rate to each entry below.
# respond with the number and nothing more

In: Reported Growth Rate for HEK-293T, given COc1cc(-n2cnc3cc(-c4ccc(Cl)cc4)sc3c2=O)ccc1OCCN1CCCC1 ?
Out: 1

In: Form entry - test system: HEK-293T; read-out: Growth Rate; compound: C[C@@H]1CCN(C(=O)CC#N)C[C@@H]1N(C)c1ncnc2[nH]ccc12.O=C(O)CC(O)(CC(=O)O)C(=O)O [TOFACITINIB CITRATE]
Out: 0

In: # returns recorded Growth Rate (system: HEK-293T) for Cl.Cl.c1ccc([C@@H]2C[C@H]2NC2CCNCC2)cc1
Out: 1

In: Param readout = Growth Rate; param system = HEK-293T; param query = O=c1nc(-c2ccccn2)sc2ccccc12 [BTZO-1] ; response: value
Out: 1

In: I'm curious: which Growth Rate was measured for COc1cccc([C@@H](C)NCCCc2ccccc2Cl)c1.Cl [TECALCET HYDROCHLORIDE] tested on HEK-293T?
Out: 0

###

Tested on: Fibroblast
Assay: Incucyte cell viability with human fibroblast; also: filed as whole numbers so only -1 and 0 and 1 occur
Format: toxicity, cell-based
Conditions: 24 h, 10 µM, compound concentration 10 uM, replicate number 1, timepoint 24 hours
Where a SMILES comes first, the peptide text is derived from it. [ ]: non-standard residue; d: D form. Arg(Me) = CNC(=N)NCCC[C@H](N)C(=O)O; d4Pal = N[C@H](Cc1ccncc1)C(=O)O; azaGly = NNC(=O)O
Value Kind: Growth Rate

In: // query Growth Rate value for entry CNCc1ccccc1-c1csc([C@H](C)Nc2nc(C)nc3cc(OC)c(OC)cc23)c1
Out: 0

In: Any idea what Growth Rate was measured for CNC(=NCCSCc1csc(N=C(N)N)n1)NC#N ?
Out: 0

In: Dear colleague, I am looking for the recorded Growth Rate of the following compound: O=C(O)[C@@H]1[C@@H](Cn2nnc3ccccc3c2=O)CC[C@H]1C(=O)c1ccc(OCCC2CCOCC2)cc1
Out: 0

In: Param item = CS(=O)(=O)c1cccc(NC(=O)N(Cc2ccc(C(=O)Nc3nn[nH]n3)cc2)c2ccc(C3CCCCC3)cc2)c1 ; retrieve measured Growth Rate.
Out: 1

In: Need Growth Rate, item CCCc1nc2c(C)cc(-c3nc4ccccc4n3C)cc2n1Cc1ccc(-c2ccccc2C(=O)O)cc1
Out: 0

In: Entry Cl.Cl.c1ccc([C@@H]2C[C@H]2NC2CCNCC2)cc1 : reported Growth Rate = ?
Out: 1

In: Any idea what Growth Rate was measured for CN(C)C(=O)/C(C#N)=C/c1ccc(-c2nc3cnc4[nH]ccc4c3n2C2CCCCC2)o1 ?
Out: 0

In: Entry Cc1cc(F)c(C(=O)Nc2cccc(-c3nncn3C(C)C)n2)cc1-n1cnc(C2CC2)c1 has what Growth Rate?
Out: 1

In: Which Growth Rate is listed for Cc1nc(-c2cn3c(n2)-c2ccc(-c4cnn(C(C)(C)C(N)=O)c4)cc2OCC3)n(C(C)C)n1 ?
Out: 0

In: Query: Growth Rate; subject: O=C(/C=C/N1C[C@H]2C[C@@H]1CN2c1ccccn1)c1ccccc1O
Out: 1

In: Which Growth Rate reading was recorded for the compound COc1cccc(OC)c1-c1cc(C(=O)NC2(C(=O)O)C3CC4CC(C3)CC2C4)nn1-c1ccc(C(=O)N(C)CCCN(C)C)cc1C(C)C (stereo not drawn) ?
Out: 0

In: Any idea what Growth Rate was measured for CC1=C(C#N)C(c2ccc3[nH]nc(C)c3c2)C(C#N)=C(C)N1 ?
Out: 1

In: Looking for the measured Growth Rate of CCN(CC)CCCCNc1ncc2cc(-c3cc(OC)cc(OC)c3)c(NC(=O)NC(C)(C)C)nc2n1 , can you help?
Out: 0

In: // query Growth Rate value for entry Cc1nc(-c2ccc(-c3ccc(C(=O)N4CCc5cc6c(cc54)C4(CCN(C)CC4)CO6)cc3)c(C)c2)no1
Out: 0

In: Any idea what Growth Rate was measured for CNC(=N)NCCC[C@H](NC(=O)[C@H](CC(C)C)NC(=O)NNC(=O)[C@H](Cc1ccccc1)NC(=O)[C@H](CO)NC(=O)[C@H](CC(N)=O)NC(=O)[C@@H](Cc1ccncc1)NC(=O)[C@H](N)Cc1ccc(O)cc1)C(=O)N[C@@H](Cc1ccccc1)C(N)=O [KISS1-305] (H-[dY][d4Pal]NSF[azaGly]L[Arg(Me)]F-NH2) ?
Out: 0

In: Need Growth Rate, item CN([C@@H]1CCc2c(CC(=O)O)c3cc(S(C)(=O)=O)ccc3n2C1)S(=O)(=O)c1ccc(F)cc1 [CRTH2-negative-control]
Out: 1

In: What does the record list as Growth Rate for CN(c1ccnc(CNc2nc(Nc3ccc4c(c3)CC(=O)N4)ncc2C(F)(F)F)n1)S(C)(=O)=O ?
Out: 1

In: For the compound shown here, C=C1/C(=C\C=C2/CCC[C@]3(C)[C@@H]([C@H](C)/C=C/C=C/C(O)(CC)CC)CC[C@@H]23)C[C@@H](O)C[C@@H]1O , give the reported Growth Rate.
Out: 1

In: Which Growth Rate is listed for CS(=O)(=O)NC[C@H]1CC[C@H](Nc2nc3c(s2)CCSc2ccccc2-3)CC1 ?
Out: 0

In: May I ask what Growth Rate has been recorded for CC1(C)CCC(C)(C)c2cc(C3(c4ccc(C(=O)O)cc4)OCCO3)ccc21 ?
Out: 1

In: Name the reported Growth Rate value associated with the compound C[C@H]1CC(=O)Nc2cc(C(=O)NCCC3CC3)ccc2N1C(=O)N1CC2CC2C1 (stereo partly drawn)
Out: 1

In: So what's the measured Growth Rate for this one? CNCCN1CCC(OCc2ccccc2)CC1
Out: 1

In: I have this compound here, N#Cc1ccc(NC(=O)Nc2ccccc2Br)c2nn[nH]c12 , and I need its recorded Growth Rate.
Out: 1

In: Reported Growth Rate, compound Br.Br.N=C(N)SCCc1c[nH]cn1 : ____
Out: 1

In: Suppose we examine the compound C[C@@H]1CCN(C(=O)CC#N)C[C@@H]1N(C)c1ncnc2[nH]ccc12.O=C(O)CC(O)(CC(=O)O)C(=O)O [TOFACITINIB CITRATE] ; what Growth Rate value has been reported?
Out: 1

In: # get_value(readout='Growth Rate', item= NC(=O)c1ccc(NC(=O)NCc2cccc(C(=O)Nc3ccc4c(c3)CNCC4)c2)cc1 )
Out: 1

In: Record request: Growth Rate value, item CC(C)(C)NCC(O)COc1cccc2[nH]c(=O)[nH]c12.Cl (stereo not drawn)
Out: 1

In: What value of Growth Rate has been reported for the following compound? OC1(c2ccc(Cl)cc2)CCN(Cc2c[nH]c3ccccc23)CC1
Out: 0

In: Recorded Growth Rate of CNc1nc(NCc2ccc(NS(C)(=O)=O)cc2Cl)cc(-c2ccccn2)n1 , please.
Out: 0

In: Look up Growth Rate: N#Cc1c(O)nc(SCc2cccc(F)c2F)nc1C1CC1
Out: 1

In: Data request, read-out Growth Rate, for CN(C)S(=O)(=O)c1ccc(NC(=S)N2CCC(C(O)(c3ccccc3)c3ccccc3)CC2)cc1
Out: 0

In: # Growth Rate lookup, item COc1ccc(C2(O)OC(=O)C(c3ccc4c(c3)OCO4)=C2Cc2cc(OC)c(OC)c(OC)c2)cc1 (stereo not drawn)
Out: 0

In: Dear colleague, I am looking for the recorded Growth Rate of the following compound: O=C(NCCCC1CCCCC1)c1ccc(CNC(=O)c2cnn(-c3ccccc3)c2C(F)(F)F)cc1
Out: 1

###

Test system: U2OS
Test: Multiplex assay against U2OS
Type: toxicity, cell-based
Conditions: human, 48 h, 10 µM, compound concentration 10 uM, replicate 1
Value Kind: Population Fragmented Nuclei (%)
Give the value in % but do not write % after it.

In: Fill in the blank: the reported Population Fragmented Nuclei (%) of COc1ncc(-c2ccc3nccc(-c4ccnnc4)c3c2)cc1NS(=O)(=O)c1ccc(F)cc1F is ____.
Out: 37

In: Item under review: Cc1csc2c(N[C@@H](C)CN3CCN(S(=O)(=O)c4ccc(Cl)c(Cl)c4)CC3)ncnc12 . Reported Population Fragmented Nuclei (%)?
Out: 25

In: Can you share its Population Fragmented Nuclei (%)? I mean this compound: C[C@@]1(C(=O)Nc2ccc(F)nc2)CCCN1c1nc(Nc2cc(C3CC3)n[nH]2)c2cccn2n1
Out: 26

In: Can you share its Population Fragmented Nuclei (%)? I mean this compound: COc1cc(-n2cnc3cc(-c4ccc(Cl)cc4)sc3c2=O)ccc1OCCN1CCCC1
Out: 33

In: For NC(=O)Nc1cc(-c2cccc(F)c2)sc1C(=O)N[C@H]1CCCNC1 , what is its reported Population Fragmented Nuclei (%)?
Out: 38

In: May I ask what Population Fragmented Nuclei (%) has been recorded for CC(C)NCC(O)COc1ccc(CCOCC2CC2)cc1.Cl (configuration not stated) [BETAXOLOL HYDROCHLORIDE] ?
Out: 19

In: May I ask what Population Fragmented Nuclei (%) has been recorded for Cc1[nH]c(/C=C2\C(=O)Nc3ccc(S(=O)(=O)N(C)c4cccc(Cl)c4)cc32)c(C)c1C(=O)N1CCN(C)CC1 ?
Out: 24

In: Param item = COc1cc2nccc(Oc3ccc(NC(=O)Nc4cc(C)on4)c(Cl)c3)c2cc1OC.O ; retrieve measured Population Fragmented Nuclei (%).
Out: 41

In: Endpoint output: Population Fragmented Nuclei (%) of OC1(c2ccc(Cl)cc2)CCN(Cc2c[nH]c3ccccc23)CC1 . Value?
Out: 37

In: Would you mind telling me what Population Fragmented Nuclei (%) value was observed for C=CC(=O)Nc1cccc(C(=O)Nc2ccc(Nc3cc(-c4[nH]c(SC)nc4C)ccn3)cc2)c1 ?
Out: 7

In: Which Population Fragmented Nuclei (%) reading was recorded for the compound CN1CCN(c2ccc(OC(F)(F)F)c(Nc3ncc4c(n3)-c3c(c(C(N)=O)nn3CCO)CC4)c2)CC1 ?
Out: 17

In: Name the recorded Population Fragmented Nuclei (%) for CC(C)(O)CNc1ncc(-c2ccnc(Nc3ccnc(Cl)c3)n2)c(CC2CC2)n1 .
Out: 35

In: # query: Population Fragmented Nuclei (%) of entry CN(C)CC#Cc1ccc(OCCCc2sc(N3CCc4cccc(C(=O)Nc5nc6ccccc6s5)c4C3)nc2C(=O)O)c(F)c1
Out: 26

In: # get_value(readout='Population Fragmented Nuclei (%)', item= CCOCCn1cc(C(=O)Nc2ccc(-n3nc(-c4cccnc4)cc3C(F)(F)F)cn2)ccc1=O )
Out: 16

In: Suppose we examine the compound CCn1c(=O)c(-c2ccc(Cl)cc2Cl)cc2cnc(Nc3ccc(N4CCNCC4)c(F)c3)nc21 ; what Population Fragmented Nuclei (%) value has been reported?
Out: 48

In: Need Population Fragmented Nuclei (%), item Cc1nc(-c2ccc(-c3ccc(C(=O)N4CCc5cc6c(cc54)C4(CCN(C)CC4)CO6)cc3)c(C)c2)no1
Out: 27

In: What does the record list as Population Fragmented Nuclei (%) for CN(C)C(=O)/C(C#N)=C/c1ccc(-c2nc3cnc4[nH]ccc4c3n2C2CCCCC2)o1 ?
Out: 26

In: Request the reported Population Fragmented Nuclei (%) associated with CN1CCCC(n2nc(Cc3ccc(Cl)cc3)c3ccccc3c2=O)CC1.Cl (configuration not stated) [AZELASTINE HYDROCHLORIDE]
Out: 23

In: Requested field: Population Fragmented Nuclei (%). Item: CN1CCN(CCOc2cc(OC3CCOCC3)c3c(Nc4c(Cl)ccc5c4OCO5)ncnc3c2)CC1
Out: 24

In: Fill blank: measured Population Fragmented Nuclei (%) of the compound COc1cccc([C@@H](C)NCCCc2ccccc2Cl)c1.Cl [TECALCET HYDROCHLORIDE] is ____.
Out: 18

In: Quick one: Population Fragmented Nuclei (%) of O=C1NCN(c2ccccc2)C12CCN(CCCOc1ccc(F)cc1)CC2 [SPIRAMIDE] ?
Out: 32

In: Given the entry Cl.N#Cc1ccc2[nH]cc(CCCCN3CCN(c4ccc5oc(C(N)=O)cc5c4)CC3)c2c1 [VILAZODONE HYDROCHLORIDE] , report its measured Population Fragmented Nuclei (%).
Out: 35

In: May I ask what Population Fragmented Nuclei (%) has been recorded for CC[C@H](C)C(=O)O[C@H]1C[C@@H](C)C=C2C=C[C@H](C)[C@H](CC[C@@H]3C[C@@H](O)CC(=O)O3)[C@H]21 ?
Out: 12

In: Dear colleague, I am looking for the recorded Population Fragmented Nuclei (%) of the following compound: c1cn2cc(-c3ccc4cn[nH]c4c3)nc(Nc3ccc(N4CCOCC4)cc3)c2n1
Out: 33

In: Item under review: Cc1c(-c2ccc(O)cc2)n(Cc2ccc(OCCN3CCCCCC3)cc2)c2ccc(O)cc12 . Reported Population Fragmented Nuclei (%)?
Out: 39

In: Could you share which Population Fragmented Nuclei (%) value was measured for CNCc1ccccc1-c1csc([C@H](C)Nc2nc(C)nc3cc(OC)c(OC)cc23)c1 ?
Out: 36

In: Item Cn1cc(-c2[nH]c3cc(NC(=O)[C@H](N)C4CCCCC4)cc4c3c2C=NNC4=O)cn1 has what recorded Population Fragmented Nuclei (%)?
Out: 20

In: Would you mind telling me what Population Fragmented Nuclei (%) value was observed for CN1CCC[C@@H]1CCO[C@](C)(c1ccccc1)c1ccc(Cl)cc1.O=C(O)/C=C/C(=O)O [CLEMASTINE FUMARATE] ?
Out: 33

In: Requested field: Population Fragmented Nuclei (%). Item: Nc1c(C(=O)NCc2ccc(C(=O)NCCCC3CCCCC3)cc2)cnn1-c1ccccc1
Out: 7

In: What does the record list as Population Fragmented Nuclei (%) for CN(C)C(=O)N[C@H]1CC[C@H](CCN2CCN(c3cccc(Cl)c3Cl)CC2)CC1.Cl [CARIPRAZINE HYDROCHLORIDE] ?
Out: 12

In: Need Population Fragmented Nuclei (%) of C[C@@H](NCCCc1cccc(C(F)(F)F)c1)c1cccc2ccccc12.Cl [CINACALCET HYDROCHLORIDE] , thanks.
Out: 26

In: For the compound Cc1cc(C)cc(-c2cnc3cc(Cl)c(-c4cccc(O)c4)cc3c2OCCCN)c1 , what Population Fragmented Nuclei (%) is on record?
Out: 30
